details: in n-pentanol, 313.15 K

{"columns": ["Smiles text", "solubility (mole fraction)"],
 "data": [
  ["O=C(O)c1cc([N+](=O)[O-])cc([N+](=O)[O-])c1", 0.0456]
]}

====

details: in ethyl acetate, 298.15 K

{"columns": ["Smiles text", "solubility (mole fraction)"],
 "data": [
  ["O=C(O)c1cc([N+](=O)[O-])cc([N+](=O)[O-])c1", 0.0426]
]}

====

conditions: in acetonitrile, 318.15 K
Parameter: solubility (mole fraction)

{"columns": ["Smiles text", "Experimental result"],
 "data": [
  ["O=C(O)c1cc([N+](=O)[O-])cc([N+](=O)[O-])c1", 0.0218]
]}

====

conditions: in isopropanol, 303.15 K

{"columns": ["Smiles text", "solubility (mole fraction)"],
 "data": [
  ["O=C(O)c1cc([N+](=O)[O-])cc([N+](=O)[O-])c1", 0.0315]
]}

====

details: in n-pentanol, 308.15 K

{"columns": ["Smiles text", "solubility (mole fraction)"],
 "data": [
  ["O=C(O)c1cc([N+](=O)[O-])cc([N+](=O)[O-])c1", 0.0379]
]}

====

details: in isobutanol, 308.15 K

{"columns": ["Smiles text", "solubility (mole fraction)"],
 "data": [
  ["O=C(O)c1cc([N+](=O)[O-])cc([N+](=O)[O-])c1", 0.0265]
]}

====

conditions: in n-propyl acetate, 288.15 K

{"columns": ["Smiles text", "solubility (mole fraction)"],
 "data": [
  ["O=C(O)c1cc([N+](=O)[O-])cc([N+](=O)[O-])c1", 0.0296]
]}

====

details: in n-propanol, 298.15 K

{"columns": ["Smiles text", "solubility (mole fraction)"],
 "data": [
  ["O=C(O)c1cc([N+](=O)[O-])cc([N+](=O)[O-])c1", 0.0274]
]}

====

details: in isobutanol, 313.15 K
Parameter: solubility (mole fraction)

{"columns": ["Smiles text", "Experimental result"],
 "data": [
  ["O=C(O)c1cc([N+](=O)[O-])cc([N+](=O)[O-])c1", 0.031]
]}

====

conditions: in methyl acetate, 313.15 K

{"columns": ["Smiles text", "solubility (mole fraction)"],
 "data": [
  ["O=C(O)c1cc([N+](=O)[O-])cc([N+](=O)[O-])c1", 0.0623]
]}

====

conditions: in methyl acetate, 298.15 K
Parameter: solubility (mole fraction)

{"columns": ["Smiles text", "Parameter", "Experimental result"],
 "data": [
  ["O=C(O)c1cc([N+](=O)[O-])cc([N+](=O)[O-])c1", "solubility (mole fraction)", 0.0498]
]}

====

settings: in n-butyl acetate, 308.15 K
Parameter: solubility (mole fraction)

{"columns": ["Smiles text", "Experimental result"],
 "data": [
  ["O=C(O)c1cc([N+](=O)[O-])cc([N+](=O)[O-])c1", 0.04]
]}

====

settings: in isobutanol, 318.15 K

{"columns": ["Smiles text", "solubility (mole fraction)"],
 "data": [
  ["O=C(O)c1cc([N+](=O)[O-])cc([N+](=O)[O-])c1", 0.0376]
]}

====

conditions: in methanol, 313.15 K

{"columns": ["Smiles text", "solubility (mole fraction)"],
 "data": [
  ["O=C(O)c1cc([N+](=O)[O-])cc([N+](=O)[O-])c1", 0.0767]
]}

====

settings: in methanol, 293.15 K
Parameter: solubility (mole fraction)

{"columns": ["Smiles text", "Experimental result"],
 "data": [
  ["O=C(O)c1cc([N+](=O)[O-])cc([N+](=O)[O-])c1", 0.0454]
]}

====

details: in n-butanol, 303.15 K
Parameter: solubility (mole fraction)

{"columns": ["Smiles text", "Experimental result"],
 "data": [
  ["O=C(O)c1cc([N+](=O)[O-])cc([N+](=O)[O-])c1", 0.0329]
]}

====

details: in acetonitrile, 298.15 K

{"columns": ["Smiles text", "solubility (mole fraction)"],
 "data": [
  ["O=C(O)c1cc([N+](=O)[O-])cc([N+](=O)[O-])c1", 0.0129]
]}

====

settings: in isopropanol, 298.15 K

{"columns": ["Smiles text", "solubility (mole fraction)"],
 "data": [
  ["O=C(O)c1cc([N+](=O)[O-])cc([N+](=O)[O-])c1", 0.0255]
]}

====

settings: in methyl acetate, 283.15 K

{"columns": ["Smiles text", "solubility (mole fraction)"],
 "data": [
  ["O=C(O)c1cc([N+](=O)[O-])cc([N+](=O)[O-])c1", 0.0378]
]}

====

settings: in ethanol, 318.15 K
Parameter: solubility (mole fraction)

{"columns": ["Smiles text", "Experimental result"],
 "data": [
  ["O=C(O)c1cc([N+](=O)[O-])cc([N+](=O)[O-])c1", 0.07]
]}

====

details: in methanol, 298.15 K

{"columns": ["Smiles text", "solubility (mole fraction)"],
 "data": [
  ["O=C(O)c1cc([N+](=O)[O-])cc([N+](=O)[O-])c1", 0.0502]
]}

====

conditions: in methyl acetate, 303.15 K
Parameter: solubility (mole fraction)

{"columns": ["Smiles text", "Parameter", "Experimental result"],
 "data": [
  ["O=C(O)c1cc([N+](=O)[O-])cc([N+](=O)[O-])c1", "solubility (mole fraction)", 0.054]
]}

====

settings: in n-propanol, 303.15 K

{"columns": ["Smiles text", "solubility (mole fraction)"],
 "data": [
  ["O=C(O)c1cc([N+](=O)[O-])cc([N+](=O)[O-])c1", 0.0332]
]}

====

details: in sec-butanol, 323.15 K

{"columns": ["Smiles text", "solubility (mole fraction)"],
 "data": [
  ["O=C(O)c1cc([N+](=O)[O-])cc([N+](=O)[O-])c1", 0.0777]
]}

====

conditions: in methanol, 308.15 K

{"columns": ["Smiles text", "solubility (mole fraction)"],
 "data": [
  ["O=C(O)c1cc([N+](=O)[O-])cc([N+](=O)[O-])c1", 0.0669]
]}

====

details: in n-butanol, 318.15 K

{"columns": ["Smiles text", "solubility (mole fraction)"],
 "data": [
  ["O=C(O)c1cc([N+](=O)[O-])cc([N+](=O)[O-])c1", 0.0537]
]}

====

conditions: in n-butyl acetate, 298.15 K
Parameter: solubility (mole fraction)

{"columns": ["Smiles text", "Experimental result"],
 "data": [
  ["O=C(O)c1cc([N+](=O)[O-])cc([N+](=O)[O-])c1", 0.0327]
]}

====

conditions: in n-butanol, 308.15 K

{"columns": ["Smiles text", "solubility (mole fraction)"],
 "data": [
  ["O=C(O)c1cc([N+](=O)[O-])cc([N+](=O)[O-])c1", 0.0386]
]}

====

settings: in ethyl acetate, 323.15 K
Parameter: solubility (mole fraction)

{"columns": ["Smiles text", "Parameter", "Experimental result"],
 "data": [
  ["O=C(O)c1cc([N+](=O)[O-])cc([N+](=O)[O-])c1", "solubility (mole fraction)", 0.0627]
]}

====

details: in n-butanol, 283.15 K

{"columns": ["Smiles text", "solubility (mole fraction)"],
 "data": [
  ["O=C(O)c1cc([N+](=O)[O-])cc([N+](=O)[O-])c1", 0.0138]
]}

====

conditions: in acetonitrile, 303.15 K
Parameter: solubility (mole fraction)

{"columns": ["Smiles text", "Parameter", "Experimental result"],
 "data": [
  ["O=C(O)c1cc([N+](=O)[O-])cc([N+](=O)[O-])c1", "solubility (mole fraction)", 0.0148]
]}

====

settings: in n-propanol, 288.15 K

{"columns": ["Smiles text", "solubility (mole fraction)"],
 "data": [
  ["O=C(O)c1cc([N+](=O)[O-])cc([N+](=O)[O-])c1", 0.019]
]}

====

details: in sec-butanol, 298.15 K

{"columns": ["Smiles text", "solubility (mole fraction)"],
 "data": [
  ["O=C(O)c1cc([N+](=O)[O-])cc([N+](=O)[O-])c1", 0.0263]
]}

====

settings: in sec-butanol, 313.15 K
Parameter: solubility (mole fraction)

{"columns": ["Smiles text", "Experimental result"],
 "data": [
  ["O=C(O)c1cc([N+](=O)[O-])cc([N+](=O)[O-])c1", 0.0503]
]}

====

conditions: in n-butanol, 293.15 K
Parameter: solubility (mole fraction)

{"columns": ["Smiles text", "Experimental result"],
 "data": [
  ["O=C(O)c1cc([N+](=O)[O-])cc([N+](=O)[O-])c1", 0.0214]
]}
